systemUnderTest: Cathepsin B (Homo sapiens)
testSummary: Second-order rate constant for inactivation of human cathepsin B
measurementType: K2

# compound, result
rows = [
    ("OC(C/C(=C\\Cl)[Te](Cl)(Cl)Cl)c1ccccc1 (centres undefined)", "12000 M⁻¹ s⁻¹"),
    ("COc1ccccc1C(=O)/C=C(/c1ccccc1OC)[Te](Cl)(Cl)Cl", "15000 M⁻¹ s⁻¹"),
    ("Cl[Te]1(Cl)OCCO1", "0.037 M⁻¹ s⁻¹"),
    ("COc1ccc([Te]2(Cl)OC3(CCCCC3)/C2=C\\Cl)cc1 (centres undefined)", "36000 M⁻¹ s⁻¹"),
    ("COc1ccc([Te]2(Cl)OC3(CCCCCC3)/C2=C\\Cl)cc1 (centres undefined)", "1600 M⁻¹ s⁻¹"),
    ("CC[N+](CC)(CC)Cc1ccccc1.ClC1=C[Te](Cl)(Cl)OC1", "6000 M⁻¹ s⁻¹"),
    ("COc1ccc([Te](Cl)(Cl)/C=C(\\Cl)c2ccccc2)cc1", "7900 M⁻¹ s⁻¹"),
    ("COc1ccc([Te]2(Cl)OC3(CCCCC3)/C2=C\\Br)cc1 (centres undefined)", "7700 M⁻¹ s⁻¹"),
    ("COc1ccc([Te](Cl)(Cl)/C(=C/Cl)C(C)(C)O)cc1", "11000 M⁻¹ s⁻¹"),
]

Values were extracted from ChEMBL document CHEMBL1144300.
